Kindly state IC50 for each of the entries shown.
molecular target: Amine oxidase [flavin-containing] A (Homo sapiens); assay: Inhibition of recombinant human MAO-A expressed in baculovirus infected BTI insect cells using kynuramine as substrate after 30 mins by fluorimetric method
Sequence (P21397 whole entry): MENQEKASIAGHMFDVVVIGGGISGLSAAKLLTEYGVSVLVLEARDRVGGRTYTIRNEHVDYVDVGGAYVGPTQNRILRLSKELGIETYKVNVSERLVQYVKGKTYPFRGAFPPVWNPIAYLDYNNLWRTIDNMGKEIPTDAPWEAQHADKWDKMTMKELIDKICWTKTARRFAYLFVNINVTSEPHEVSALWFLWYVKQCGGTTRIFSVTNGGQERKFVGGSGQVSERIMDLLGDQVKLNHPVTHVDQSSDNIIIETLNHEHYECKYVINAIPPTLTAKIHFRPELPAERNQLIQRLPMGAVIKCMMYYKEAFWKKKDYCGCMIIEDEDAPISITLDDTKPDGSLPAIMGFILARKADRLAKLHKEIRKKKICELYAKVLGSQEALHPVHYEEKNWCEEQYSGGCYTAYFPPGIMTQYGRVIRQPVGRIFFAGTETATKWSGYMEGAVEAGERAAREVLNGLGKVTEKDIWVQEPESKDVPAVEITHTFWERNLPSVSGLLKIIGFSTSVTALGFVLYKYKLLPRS
One number for each entry, in nM.

# mol smiles, observed result
rows = [
    ("CCN(CCCCOc1cc(O)c2c(=O)c3ccccc3sc2c1)Cc1ccc(N(C)C)cc1", 1000),
    ("CN(CCCCOc1cc(O)c2c(=O)c3ccccc3sc2c1)Cc1ccccc1", 570),
    ("CN(CCCOc1cc(O)c2c(=O)c3ccccc3sc2c1)Cc1ccccc1", 16000),
    ("CCN(CCCOc1cc(O)c2c(=O)c3ccccc3sc2c1)Cc1ccccc1N(C)C", 5940),
    ("COc1ccccc1CN(C)CCCCCCOc1cc(O)c2c(=O)c3ccccc3sc2c1", 1030),
]

Parameter requested: IC50. Apply to each item below.
1. O=c1c2ccccc2sc2cc(O)cc(O)c12
2. CCN(CCCOc1cc(O)c2c(=O)c3ccccc3sc2c1)Cc1ccccc1OC
3. COc1ccccc1CN(C)CCCCOc1cc(O)c2c(=O)c3ccccc3sc2c1
4. CCN(CCCCOc1cc(O)c2c(=O)c3ccccc3sc2c1)Cc1ccccc1N(C)C
5. CCN(CCCCOc1cc(O)c2c(=O)c3ccccc3sc2c1)Cc1ccccc1OC
6. CCN(CCCCCCOc1cc(O)c2c(=O)c3ccccc3sc2c1)Cc1ccccc1N(C)C
7. CCN(CCCCCCOc1cc(O)c2c(=O)c3ccccc3sc2c1)Cc1ccccc1OC
8. CCN(CCCCOc1cc(O)c2c(=O)c3ccccc3sc2c1)Cc1ccccc1

Result:
[280, 8170, 620, 1540, 1020, 1010, 1300, 340]

Result for "CCN(CCCCCCOc1cc(O)c2c(=O)c3ccccc3sc2c1)Cc1ccc(N(C)C)cc1" , tested on Amine oxidase [flavin-containing] A (Homo sapiens), IC50: 1250
